# TEST_DESCRIPTION: BSK_hDFCGF_Proliferation: Cell Proliferation Assessment in the BioMAP Diversity Plus: hDFCGF Assay (AID 2283059);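 also: curves fitted for both rise and fall of signal versus DMSO baseline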
# ASSAY_CONTEXT: primary human foreskin fibroblasts
The source made the active and inactive calls. The calls were made as follows: active = hit-call score of the fitted dose curve at least 0.9, where 1 is the maximum; inactive = score below 0.9.
Hi there, use one of these labels in your reply, thanks! active, inactive

Reference set (3 entries):
Cc1ccc(N)c(N)c1
active
Nc1ccc(Cl)cc1N
active
CCOC(=O)[C@]1(c2ccccc2)Oc2ccccc2[C@@H]1N
active

Query block: So what was the verdict on Clc1ccc(C(c2ccc(Cl)cc2)C(Cl)Cl)cc1 in this test?
Result block: active

---

# TEST_DESCRIPTION: IUF_NPC2a_radial_glia_migration_72hr: Leibniz Research Institute for Environmental Medicine (IUF) 72-hour Neural Progenitor Cell Migration Assay for Radial Glia Migration (NPC2a) (AID 2284299)
Calls of active or inactive are those of the source. Rule for the calls: active = hit-call score of the fitted dose curve at least 0.9, where 1 is the maximum; inactive = score below 0.9.
Hi there, use one of these labels in your reply, thanks! Y for active, N for inactive

Reference set (4 entries):
[O-][Cl+]O
N
COC(=O)Nc1nc2ccccc2[nH]1
Y
OCCOCCO
N
O=P(OCCCl)(OCCCl)OCCCl
N

In the following, a different molecule is considered.
Query block: So what was the verdict on CCC[CH2][Sn]([Cl])([CH2]CCC)[CH2]CCC in this test?
Result block: Y

---

# Read-out: Monokine induced gamma interferon (MIG), CXCL9 (gene 4283)
# TEST_DESCRIPTION: BSK_hDFCGF_MIG: BioMAP Diversity Plus: hDFCGF Assay for Monokine induced gamma interferon (MIG) Biomarker Activity (AID 2283063)
# ASSAY_CONTEXT: primary human foreskin fibroblasts; actives raise or lower the signal
Calls of active or inactive are those of the source. The calls were made as follows: active = hit-call score of the fitted dose curve at least 0.9, where 1 is the maximum; inactive = score below 0.9.
Hi there, use one of these labels in your reply, thanks! YES for active, NO for inactive

Reference set (3 entries):
Clc1ccc(C(c2ccc(Cl)cc2)C(Cl)(Cl)Cl)cc1
YES
Cc1ccc(N=C=O)cc1N=C=O
NO
CO[C@@H]1[C@H](OC(=O)NC(=O)CCl)CC[C@]2(CO2)[C@H]1[C@@]1(C)O[C@@H]1CC=C(C)C
YES

Query block: So what was the verdict on O=C(O)C1C2CCC(O2)C1C(=O)O (configuration not stated) in this test?
Result block: NO

Query block: So what was the verdict on CC(C)N(Cc1ccccc1)C(=O)C(C)(C)C in this test?
Result block: NO

Query block: So what was the verdict on CN(C)C(=O)Nc1ccc(Cl)cc1 in this test?
Result block: NO

Query block: So what was the verdict on Clc1ccccc1Cl in this test?
Result block: NO

---

# Read-out: Nuclear factor erythroid 2-related factor 2 (Homo sapiens) (UniProt Q16236)
# Sequence (Q16236 whole entry, looked up): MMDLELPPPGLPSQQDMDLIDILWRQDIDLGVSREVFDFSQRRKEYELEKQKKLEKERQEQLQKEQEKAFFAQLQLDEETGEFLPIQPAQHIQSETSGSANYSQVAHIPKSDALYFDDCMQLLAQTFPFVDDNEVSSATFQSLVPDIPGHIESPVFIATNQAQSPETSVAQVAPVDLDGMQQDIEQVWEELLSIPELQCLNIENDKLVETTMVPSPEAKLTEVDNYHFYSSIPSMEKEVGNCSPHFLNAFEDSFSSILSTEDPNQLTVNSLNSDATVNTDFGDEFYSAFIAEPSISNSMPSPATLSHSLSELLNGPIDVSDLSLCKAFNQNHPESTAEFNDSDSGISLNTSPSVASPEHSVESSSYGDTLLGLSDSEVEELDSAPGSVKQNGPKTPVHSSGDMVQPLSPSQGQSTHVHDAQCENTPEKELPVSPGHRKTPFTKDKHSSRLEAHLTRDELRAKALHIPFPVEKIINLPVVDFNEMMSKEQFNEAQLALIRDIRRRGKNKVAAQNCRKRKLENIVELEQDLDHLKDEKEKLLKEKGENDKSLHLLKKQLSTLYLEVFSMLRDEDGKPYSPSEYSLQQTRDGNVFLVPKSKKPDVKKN
# TEST_DESCRIPTION: LTEA_HepaRG_NFE2L2: Life Technologies and Expression Analysis (LTEA) Assay for Nuclear factor erythroid 2-related factor 2 (NFE2L2) Transcription Factor using HepaRG (AID 2283527)
# ASSAY_CONTEXT: mRNA level, 48 h; actives raise or lower the signal
Activity calls are given as the source filed them. Rule for the calls: active = hit-call score of the fitted dose curve at least 0.9, where 1 is the maximum; inactive = score below 0.9.
Hi there, use one of these labels in your reply, thanks! active, inactive

Reference set (5 entries):
CC(C)(C)OOC(=O)c1ccccc1
inactive
Brc1ccc(Oc2ccccc2)cc1
inactive
Cn1cc(-c2ccccc2)c(=O)c(-c2cccc(C(F)(F)F)c2)c1
active
O=[N+]([O-])c1ccc(Oc2ccc(Cl)cc2Cl)cc1
inactive
CC(C)COC(=O)c1ccccc1C(=O)OCC(C)C
inactive

Query block: So what was the verdict on c1ccc(N=Nc2ccccc2)cc1 in this test?
Result block: inactive

Query block: So what was the verdict on CO[C@@H]1[C@H](OC(=O)NC(=O)CCl)CC[C@]2(CO2)[C@H]1[C@@]1(C)O[C@@H]1CC=C(C)C in this test?
Result block: inactive

Query block: So what was the verdict on CN(C)c1ccccc1 in this test?
Result block: inactive
